Reported relative viability values for a set of molecules
# Tested on: COR-L 105
# assay.info: relative viability (nuclei count vs DMSO), 5 days (fraction); higher = more cells survive
# condition.notes: first compound 0.01581 µM
measurement.kind: relative viability

>>> value_reported("Nc1ccn([C@@H]2O[C@H](CO)[C@@H](O)[C@@H]2O)c(=O)n1 [Cytarabine] + Cc1cc(Nc2cc(N3CCN(C)CC3)nc(Sc3ccc(NC(=O)C4CC4)cc3)n2)n[nH]1 [Tozasertib] (partner 0.1 µM)")
0.317
>>> value_reported("COc1cc2nccc(Oc3ccc(NC(=O)Nc4cc(C)on4)c(Cl)c3)c2cc1OC [Tivozanib] + COc1cc2c(Oc3ccc(NC(=O)C4(C(=O)Nc5ccc(F)cc5)CC4)cc3F)ccnc2cc1OCCCN1CCOCC1 [Foretinib] (partner 0.25 µM)")
1.06
>>> value_reported("Nc1ccn([C@@H]2O[C@H](CO)[C@@H](O)[C@@H]2O)c(=O)n1 [Cytarabine] + O=C(c1cc(Cc2n[nH]c(=O)c3ccccc23)ccc1F)N1CCN(C(=O)C2CC2)CC1 [Olaparib] (partner 8 µM)")
0.791
>>> value_reported("Nc1ccn([C@@H]2O[C@H](CO)[C@@H](O)[C@@H]2O)c(=O)n1 [Cytarabine] + COc1cc2c(Oc3ccc(NC(=O)C4(C(=O)Nc5ccc(F)cc5)CC4)cc3F)ccnc2cc1OCCCN1CCOCC1 [Foretinib] (partner 0.25 µM)")
1.29

----------
Reported relative viability values for a set of compounds
# Tested on: LK-2
# assay.info: relative viability (nuclei count vs DMSO), 5 days (fraction); higher = more cells survive
# condition.notes: first compound 0.01581 µM
measurement.kind: relative viability

>>> value_reported("COc1cc2nccc(Oc3ccc(NC(=O)Nc4cc(C)on4)c(Cl)c3)c2cc1OC [Tivozanib] + CC(=O)c1c(C)c2cnc(Nc3ccc(N4CCNCC4)cn3)nc2n(C2CCCC2)c1=O [Palbociclib] (partner 0.5 µM)")
0.674
>>> value_reported("Nc1ccn([C@@H]2O[C@H](CO)[C@@H](O)[C@@H]2O)c(=O)n1 [Cytarabine] + NC(=O)Nc1cc(-c2cccc(F)c2)sc1C(=O)N[C@H]1CCCNC1 [AZD7762] (partner 0.2 µM)")
0.13
>>> value_reported("COc1cc2nccc(Oc3ccc(NC(=O)Nc4cc(C)on4)c(Cl)c3)c2cc1OC [Tivozanib] + NC(=O)Nc1cc(-c2cccc(F)c2)sc1C(=O)N[C@H]1CCCNC1 [AZD7762] (partner 0.2 µM)")
0.278
>>> value_reported("Nc1ccn([C@@H]2O[C@H](CO)[C@@H](O)[C@@H]2O)c(=O)n1 [Cytarabine] + Cc1cc(Nc2cc(N3CCN(C)CC3)nc(Sc3ccc(NC(=O)C4CC4)cc3)n2)n[nH]1 [Tozasertib] (partner 0.1 µM)")
0.185
>>> value_reported("COc1cc2nccc(Oc3ccc(NC(=O)Nc4cc(C)on4)c(Cl)c3)c2cc1OC [Tivozanib] + C[C@@H](Oc1cc(-c2cnn(C3CCNCC3)c2)cnc1N)c1c(Cl)ccc(F)c1Cl [Crizotinib] (partner 1 µM)")
0.264
>>> value_reported("Nc1ccn([C@@H]2O[C@H](CO)[C@@H](O)[C@@H]2O)c(=O)n1 [Cytarabine] + CC(=O)Nc1cccc(-n2c(=O)n(C3CC3)c(=O)c3c(Nc4ccc(I)cc4F)n(C)c(=O)c(C)c32)c1 [Trametinib] (partner 0.02 µM)")
0.701
>>> value_reported("COc1cc2nccc(Oc3ccc(NC(=O)Nc4cc(C)on4)c(Cl)c3)c2cc1OC [Tivozanib] + Nc1ncn([C@H]2C[C@H](O)[C@@H](CO)O2)c(=O)n1 [Decitabine] (partner 2 µM)")
0.322
>>> value_reported("COc1cc2nccc(Oc3ccc(NC(=O)Nc4cc(C)on4)c(Cl)c3)c2cc1OC [Tivozanib] + O=C(c1cc(Cc2n[nH]c(=O)c3ccccc23)ccc1F)N1CCN(C(=O)C2CC2)CC1 [Olaparib] (partner 8 µM)")
0.759
>>> value_reported("COc1cc2nccc(Oc3ccc(NC(=O)Nc4cc(C)on4)c(Cl)c3)c2cc1OC [Tivozanib] + COc1cc2c(Oc3ccc(NC(=O)C4(C(=O)Nc5ccc(F)cc5)CC4)cc3F)ccnc2cc1OCCCN1CCOCC1 [Foretinib] (partner 0.25 µM)")
1.09
>>> value_reported("Nc1ccn([C@@H]2O[C@H](CO)[C@@H](O)[C@@H]2O)c(=O)n1 [Cytarabine] + Cc1nc(NC(=O)N2CCC[C@H]2C(N)=O)sc1-c1ccnc(C(C)(C)C(F)(F)F)c1 [Alpelisib] (partner 2 µM)")
0.716
>>> value_reported("Nc1ccn([C@@H]2O[C@H](CO)[C@@H](O)[C@@H]2O)c(=O)n1 [Cytarabine] + CCNC(=O)c1noc(-c2cc(C(C)C)c(O)cc2O)c1-c1ccc(CN2CCOCC2)cc1 [Luminespib] (partner 0.01 µM)")
0.187

These data points were gathered from the supplement of paper PMC10307832.
